# Test Name: Compound was evaluated for its half-life when nucleophile was added in solution buffered at pH 7.2 in the presence of aminoethanol
# Type: ADME
# Conditions: buffered solution with added nucleophile (aminoethanol)
Each item that follows carries a reported half-life.
Reply with just the number (in h).

Cc1cn([C@H]2C[C@H](O)[C@@H](CO)O2)c(=O)n(/C=C/C=O)c1=O 25
Cc1cn(/C=C/C=O)c(=O)[nH]c1=O 18

# get_value(readout='half-life', item= "Nc1ncnc2c1ncn2/C=C/C=O" )
15

---

# Tested on: HeLa
# Test Name: Inhibition of HeLa cells growth (cytotoxicity)
# Assay type: functional
# Conditions: Homo sapiens, read-out: ID50 (the source's name)
// values below are reported pIC50
Recall that pIC50 is obtained by taking minus log10 of the concentration measured in molar.

Sample records with pIC50:
Compound	pIC50
Nc1ncnc2c1ncn2/C=C/C=O	5.70
CC(=O)/C=C/n1c(=O)ccn([C@H]2C[C@H](O)[C@@H](CO)O2)c1=O	5.22
O=C/C=C/n1c(=O)ccn(C2O[C@H](CO)[C@@H](O)[C@H]2O)c1=O (stereo not given in full)	5.05
Cc1cn(C)c(=O)n(/C=C/C=O)c1=O	5.52
Nc1ccn(/C=C/C=O)c(=O)n1	4.82
O=C/C=C/n1cc(F)c(=O)[nH]c1=O	5.52
Cc1cn(COCCO)c(=O)n(/C=C/C=O)c1=O	5.22
Cc1cn([C@H]2C[C@H](O)[C@@H](CO)O2)c(=O)n(/C=C/CO)c1=O	4.22
O=C/C=C/n1c(=O)ccn([C@H]2C[C@H](O)[C@@H](CO)O2)c1=O	6.00
Cc1cn([C@H]2C[C@H](O)[C@@H](CO)O2)c(=O)n(/C=C/C=O)c1=O	6.00

Suppose we examine the compound "O=C/C=C/n1c(=O)c(I)cn([C@H]2C[C@H](O)[C@@H](CO)O2)c1=O" ; what pIC50 value has been reported?
4.70

GET /values?readout=pIC50&item= "Nc1nc(O)c2ncn(/C=C/C=O)c2n1"
4.62

I am curious: what pIC50 value has been reported for "O=C/C=C/n1ccc(=O)[nH]c1=O" ?
5.40

Request the reported pIC50 associated with "Cc1cn([C@@H]2O[C@H](CO)[C@@H](O)[C@@H]2O)c(=O)n(/C=C/C=O)c1=O"
4.40

Looking for the measured pIC50 of "Cc1cn(/C=C/C=O)c(=O)[nH]c1=O" , can you help?
6.00
